These data points were gathered from ChEMBL document CHEMBL1201862.

# System: OVCAR-4
# PROCEDURE TEXT: NCI tumour cell line growth inhibition, 48 h
The source made the active and inactive calls. Cut-off read from the data, not from the text of the source: active = GI50 up to about 1.1 µM and inactive = higher.
Hello, when you answer, please use one of the following outcomes: active, inactive

Would you please look over these solved cases?
S=C(NCCc1ccccn1)N/N=C/c1ccccn1 | active
O=C1c2cc3c(cc2[C@@H]2NC4CCCC14O2)OCO3 (stereo partly drawn) | inactive
COC(=O)C(c1n[nH]c2ccccc12)C(C(=O)OC)c1n[nH]c2ccccc12 (stereo not drawn) | inactive
CCCC(O)c1cn(C(NC(=O)c2ccccc2)P(=O)(OCC)OCC)nn1 (stereo not drawn) | inactive
Nc1cc2ncnc(Nc3cccc(Br)c3)c2cn1 | inactive

Incoming: Assay result, entry OCC#CCNCl — outcome?
Outgoing: inactive

Incoming: Assay result, entry OCCSCc1ccccc1 — outcome?
Outgoing: inactive

Incoming: Assay result, entry CC(O)(CCCCCl)c1nc2ccccc2s1 (stereo not drawn) — outcome?
Outgoing: inactive

Incoming: Assay result, entry C#CC1NC(=O)C1N(CC)CC (stereo not drawn) — outcome?
Outgoing: inactive

Incoming: Assay result, entry COc1ccc(/N=N/C(=N\c2ccccc2)c2ccc(N(CCC#N)CCC#N)cc2)cc1 — outcome?
Outgoing: inactive

Incoming: Assay result, entry Cc1cc(/N=C2\C=C(Nc3cc(C)on3)C(=O)c3ccccc32)no1 — outcome?
Outgoing: inactive

Incoming: Assay result, entry O=c1ccc2c(Cl)sc(Cl)c2[nH]1 — outcome?
Outgoing: inactive

Incoming: Assay result, entry N/C(=N\O)N/N=C/c1cc(Br)cc(Br)c1O — outcome?
Outgoing: inactive
